- target_desc: PARK7 (Homo sapiens, UniProt Q99497)
- assay_remarks: FP assay with Rhodamine110 probe JYQ-107 (IC50 and hit validation)
- Format: binding
- Parameters: GST (N, cleaved yes); made in house; host or cells: E. coli BL21(DE3) Rosetta2
- assay_conditions: 100 µM compound, PARK7 0.2 μM, 1 h preincubation, JYQ-107 20 nM; read-out: FP assay %Inhibiton (100 µM)
- Procedure: The assay was performed using the conditions as described above with a reaction volume of 20 μL per well in triplicate. Stock solutions of JYQ-88 of 1 and 0.1 mM were prepared. […] The FP signal was monitored with a BMG Labtech PHERAstar plate reader (λex/em 480/520 nm) for 2 h. The validation was performed using the conditions as described above with a reaction volume of 20 μL per well in triplicate. […] The FP signal was monitored with a BMG Labtech PHERAstar plate reader (λex/em 480/520 nm) for 2 h. […]
experimental_endpoint: inhibition at 100 µM (%)

# molecule, experimental_endpoint, unit_text, recorded_number
measured = [
    ("O=C(O)c1csc(C(=O)CCl)c1", "inhibition at 100 µM", "%", 100),
    ("CC(c1ccccc1)N(C)C(=O)CCl (stereo not shown)", "inhibition at 100 µM", "%", 100),
    ("O=C(CCl)Nc1ccc(SC(F)F)cc1", "inhibition at 100 µM", "%", 100),
    ("CCc1ccc(NC(=O)CCl)cc1", "inhibition at 100 µM", "%", 100),
    ("CC(c1ccc(Cl)cc1)N(C)C(=O)CCl (stereo not shown)", "inhibition at 100 µM", "%", 100),
    ("CC(C)(C)c1ccc(NC(=O)CCl)cc1", "inhibition at 100 µM", "%", 100),
    ("CCN(c1ccc(NC(=O)CCl)cc1)C(C)C", "inhibition at 100 µM", "%", 100),
    ("CC1CCc2ccccc2N1C(=O)CCl (stereo not shown)", "inhibition at 100 µM", "%", 100),
    ("O=C(CCl)C1CCOCC1", "inhibition at 100 µM", "%", 100),
    ("O=C(CCl)c1ccc(F)c(C(=O)CCl)c1", "inhibition at 100 µM", "%", 100),
]

###

- target_desc: PARK7 (Homo sapiens)
- Sequence (Q99497 1-189): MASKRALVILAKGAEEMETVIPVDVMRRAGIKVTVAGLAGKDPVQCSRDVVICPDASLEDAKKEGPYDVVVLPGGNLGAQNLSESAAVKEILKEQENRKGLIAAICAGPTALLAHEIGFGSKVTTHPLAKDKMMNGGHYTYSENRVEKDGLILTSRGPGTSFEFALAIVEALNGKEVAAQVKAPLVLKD
- assay_remarks: FP assay with Rhodamine110 probe JYQ-107 (IC50 and hit validation)
- Format: binding
- Set-up: GST (N, cleaved yes); made in house; host or cells: E. coli BL21(DE3) Rosetta2
- assay_conditions: 12.5 µM compound, PARK7 0.2 μM, 1 h preincubation, JYQ-107 20 nM; read-out: FP assay %Inhibiton (12.5 µM)
- Procedure: The assay was performed using the conditions as described above with a reaction volume of 20 μL per well in triplicate. Stock solutions of JYQ-88 of 1 and 0.1 mM were prepared. […] The FP signal was monitored with a BMG Labtech PHERAstar plate reader (λex/em 480/520 nm) for 2 h. The validation was performed using the conditions as described above with a reaction volume of 20 μL per well in triplicate. […] The FP signal was monitored with a BMG Labtech PHERAstar plate reader (λex/em 480/520 nm) for 2 h. […]
experimental_endpoint: inhibition at 12.5 µM (%)

Here's what some known entries look like.
# molecule, inhibition at 12.5 µM (%)
data = [
    ("COc1ccccc1CN(C)C(=O)CCl", 68.3),
    ("O=C(CCl)c1ccc(F)c(C(=O)CCl)c1", 100),
    ("CC(C)(C)c1ccc(NC(=O)CCl)cc1", 100),
]

I. CC1=NOC(=O)C1CC(=O)O (centres unmarked)
II. O=C(CCl)Nc1ccc(SC(F)F)cc1
[in] Please indicate which item has the smaller measured inhibition at 12.5 µM: I versus II State the label of the item chosen.
[out] II
